Value source: the supplement of paper PMC11208160

assay: recombinant barcode read abundance after kanamycin selection (control-corrected) (log10(CPM+1)); higher = more efficient recombination; sequences stand for … in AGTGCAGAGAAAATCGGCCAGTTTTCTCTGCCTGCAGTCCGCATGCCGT…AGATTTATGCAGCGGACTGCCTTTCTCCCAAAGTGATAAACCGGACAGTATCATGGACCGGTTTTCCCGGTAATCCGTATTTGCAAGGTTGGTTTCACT; site = the 11-nt target
We use 0.2 as the dividing line for recombinant barcode read abundance (log10): on or above the line is t, below is f.

# sequence.content, label.value
measured = [
    ("CTCGGACCTTGGGTTCTAACCTGTTGCCT (site CTCGGAACTAG)", "t"),
    ("TCTTGTCCTTGGGTTCTAACCTGTTGCGC (site TCTTGTCCTAC)", "f"),
    ("TCGAATGCTTGGGTTCTAACCTGTTGCCT (site TCGAATGCTAG)", "f"),
    ("CTATTCGCTTGGGTTCTAACCTGTTGCCT (site CTATTCACTAG)", "t"),
]

Inquiry: Evaluate CTGGCTCCTTGGGTTCTAACCTGTTGCTT (site CTGGCTCCTAA) : recombinant barcode read abundance (log10) at minimum 0.2?
Reply text: t

Inquiry: Evaluate GCCTCGGCTTGGGTTCTAACCTGTTGCCT (site GCTTCGGCTAG) : recombinant barcode read abundance (log10) at minimum 0.2?
Reply text: f

Inquiry: Evaluate GTGGTACCTTGGGTTCTAACCTGTTGCAT (site ACACGGACTTA) : recombinant barcode read abundance (log10) at minimum 0.2?
Reply text: f

Inquiry: Evaluate ACCCAATCTTGGGTTCTAACCTGTTGCCT (site ACCCAATCTAG) : recombinant barcode read abundance (log10) at minimum 0.2?
Reply text: t

Inquiry: Evaluate CTAATGACTTGGGTTCTAACCTGTTGCAC (site CTAATGACTGT) : recombinant barcode read abundance (log10) at minimum 0.2?
Reply text: t

====

experiment: recombinant UMI read abundance after kanamycin selection (control-corrected) (log10(CPM+1)); higher = more efficient recombination; extreme values may be limits of the assay; sequences stand for … in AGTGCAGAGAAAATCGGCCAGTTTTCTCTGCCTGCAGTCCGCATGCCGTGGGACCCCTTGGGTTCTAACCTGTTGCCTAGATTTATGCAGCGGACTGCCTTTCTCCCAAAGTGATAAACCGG…AGGTTGGTTTCACT; site = the 11-nt donor
measured.parameter: recombinant UMI read abundance (log10)
Just the number, please, no unit after it.

# sequence.content, recombinant UMI read abundance (log10)
measured = [
    ("CCTTCTTCATGGACCGGTTTTCCCGGTAATCCGTATTTGGG (site CCTTCTTCTCC)", 0.00401),
    ("AATATAACATGGACCGGTTTTCCCGGTAATCCGTATTTGCT (site AATGTAACTAG)", 1.47),
    ("AGAATGGCATGGACCGGTTTTCCCGGTAATCCGTATTTGCT (site AGAAGGGCTAG)", 0.34),
    ("AGATTATCATGGACCGGTTTTCCCGGTAATCCGTATTTGCA (site AGATTATCTTG)", 2.9),
]

Inquiry: Output measured recombinant UMI read abundance (log10) for this item: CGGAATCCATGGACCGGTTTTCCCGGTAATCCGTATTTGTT (site CGTAATCCTGA)
Reply text: 0

====

test: recombinant barcode read abundance after kanamycin selection (control-corrected) (log10(CPM+1)); higher = more efficient recombination; sequences stand for … in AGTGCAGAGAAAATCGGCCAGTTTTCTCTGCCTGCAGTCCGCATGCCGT…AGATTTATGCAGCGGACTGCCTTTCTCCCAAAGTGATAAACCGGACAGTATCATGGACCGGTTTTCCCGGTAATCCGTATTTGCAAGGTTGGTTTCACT; site = the 11-nt target
Catalogue of recombinant barcode read abundance (log10) readings, one per entry.
Just the number, please, no unit after it.

# sequence.content, value.reported
measured = [
    ("CTACGTACTTGGGTTCTAACCTGTTGCTG (site CTACGAACTCA)", 0.0136),
    ("TAGCACACTTGGGTTCTAACCTGTTGCCG (site TCGCACACTCA)", 0.0962),
    ("CGTATGTCTTGGGTTCTAACCTGTTGCCT (site GGTATGTCTAG)", 0.0736),
    ("ATGTGCACTTGGGTTCTAACCTGTTGCAG (site CTGTGCACTCG)", 0.63),
    ("TCTAAGCCTTGGGTTCTAACCTGTTGCAT (site TCTAAACCTAT)", 0.152),
]

Inquiry: Output measured recombinant barcode read abundance (log10) for this item: AATGGGTCTTGGGTTCTAACCTGTTGCCT (site AATGGGACTAG)
Reply text: 0.0612

Inquiry: Output measured recombinant barcode read abundance (log10) for this item: TAGTACACTTGGGTTCTAACCTGTTGCAC (site ACCATGTCTCC)
Reply text: 0.0598

Inquiry: Output measured recombinant barcode read abundance (log10) for this item: TGAATGTCTTGGGTTCTAACCTGTTGCCT (site TGAACGTCTAG)
Reply text: 0.0549

Inquiry: Output measured recombinant barcode read abundance (log10) for this item: CCTGGTCCTTGGGTTCTAACCTGTTGCAT (site CCTGGTCCTAT)
Reply text: 1.42

Inquiry: Output measured recombinant barcode read abundance (log10) for this item: GTGCACTCTTGGGTTCTAACCTGTTGCGG (site GTGCACACTCC)
Reply text: 0

====

experiment: recombinant UMI read abundance after kanamycin selection (control-corrected) (log10(CPM+1)); higher = more efficient recombination; extreme values may be limits of the assay; sequences stand for … in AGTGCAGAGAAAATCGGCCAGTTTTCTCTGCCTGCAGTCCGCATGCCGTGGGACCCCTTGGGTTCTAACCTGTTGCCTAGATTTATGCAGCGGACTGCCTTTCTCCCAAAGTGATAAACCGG…AGGTTGGTTTCACT; site = the 11-nt donor
Catalogue of recombinant UMI read abundance (log10) readings, one per entry.
Just the number, please, no unit after it.

Recorded results for 6 sequences are shown here.
# sequence.content, recombinant UMI read abundance (log10)
measured = [
    ("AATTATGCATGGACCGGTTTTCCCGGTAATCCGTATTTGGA (site GATTATGCTTC)", 0.983),
    ("GCCACGCCATGGACCGGTTTTCCCGGTAATCCGTATTTGTC (site GCCACGCCTGA)", 1.03),
    ("CAACCGCCATGGACCGGTTTTCCCGGTAATCCGTATTTGTG (site CAATCGCCTCA)", 0.0138),
    ("TAGCCCACATGGACCGGTTTTCCCGGTAATCCGTATTTGTT (site TAGCCCACTAA)", 0.409),
    ("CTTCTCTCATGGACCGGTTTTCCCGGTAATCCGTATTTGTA (site CTTCTTTCTTA)", 0),
    ("GTTGGGACATGGACCGGTTTTCCCGGTAATCCGTATTTGGC (site GTTGGGACTGC)", 1.53),
]

Inquiry: Output measured recombinant UMI read abundance (log10) for this item: CGTGGACCATGGACCGGTTTTCCCGGTAATCCGTATTTGTT (site CGTGGACCTAA)
Reply text: 0.0211

Inquiry: Output measured recombinant UMI read abundance (log10) for this item: ATAGTATCATGGACCGGTTTTCCCGGTAATCCGTATTTGAC (site CTAGTATCTGT)
Reply text: 2.94

====

experiment: recombinant barcode read abundance after kanamycin selection (control-corrected) (log10(CPM+1)); higher = more efficient recombination; sequences stand for … in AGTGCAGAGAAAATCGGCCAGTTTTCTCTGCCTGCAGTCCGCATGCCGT…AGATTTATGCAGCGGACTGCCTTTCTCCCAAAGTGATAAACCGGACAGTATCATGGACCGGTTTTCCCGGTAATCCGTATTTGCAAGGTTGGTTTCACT; site = the 11-nt target
We use 0.5 as the dividing line for recombinant barcode read abundance (log10): on or above the line is Yes, below is No.

Past entries and their recorded results:
# sequence.content, label.value
rows = [
    ("GAGACATCTTGGGTTCTAACCTGTTGCCT (site GAGACATCTAG)", "Yes"),
    ("AGGGAGACTTGGGTTCTAACCTGTTGCTT (site AGGGAGACTAA)", "Yes"),
    ("TAGGACACTTGGGTTCTAACCTGTTGCGT (site TAGGACACTAC)", "Yes"),
    ("TCAGAGGCTTGGGTTCTAACCTGTTGCTG (site TCAGAGGCTCA)", "Yes"),
    ("GAGCGCTCTTGGGTTCTAACCTGTTGCAG (site GAGTGCTCTCT)", "No"),
    ("GATTTCTCTTGGGTTCTAACCTGTTGCCT (site CATTTCTCTAG)", "No"),
]

Inquiry: Evaluate AATTGTCCTTGGGTTCTAACCTGTTGCAT (site AATTGTCCTAA) : recombinant barcode read abundance (log10) at minimum 0.5?
Reply text: No

Inquiry: Evaluate ACGAACGCTTGGGTTCTAACCTGTTGCCT (site ACGATCGCTAG) : recombinant barcode read abundance (log10) at minimum 0.5?
Reply text: No

Inquiry: Evaluate GTGTACCCTTGGGTTCTAACCTGTTGCGT (site GTGTACCCTGC) : recombinant barcode read abundance (log10) at minimum 0.5?
Reply text: Yes

Inquiry: Evaluate ATCGGAGCTTGGGTTCTAACCTGTTGCTG (site ATCGGAGCTCT) : recombinant barcode read abundance (log10) at minimum 0.5?
Reply text: Yes
